# Test system: HepG2 cells
# assay-explanation: HepG2 cytotoxicity assay
# experimental-setup: read-out: HepG2 cytotoxicity assay IC50; dose response confirmation
quantity-name: log10 of IC50 (log10 of the value in µM)
Scale: log10; quantity: IC50; unit before log: µM

(Q) # lookup: log10 of IC50 of Br.CCC(ON1C(N)=NC(N)=NC1(C)C)c1ccc(Cl)cc1 (stereo not drawn)
(A) -2.29

(Q) Could you tell me which log10 of IC50 is on file for COc1ccc2ncc(C#N)c(CCN3C4CCC3CC(NCc3ccc5c(n3)NC(=O)CS5)C4)c2c1.Cl (stereo not drawn) ?
(A) 0.81

(Q) Field request: log10 of IC50 | item: COc1ccc(Nc2ncc(Cl)c(Nc3cccnc3C(N)=O)n2)cc1N1CCN(C)CC1.Cl
(A) 1.05

(Q) Any idea what log10 of IC50 was measured for Br.COc1ccc(CCCON2C(=N)N=C(N)NC2(C)C)cc1 ?
(A) -3.00

(Q) Any idea what its log10 of IC50 is? The compound is CN1Cc2cc(NC(=O)/C=C/c3ccccc3Cl)ccc2C(C)(C)C1.Cl
(A) 1.31

(Q) Need log10 of IC50 of Cc1[nH]c2ccc(-c3ccccc3)cc2c(=O)c1Br , thanks.
(A) 2.00

(Q) Look at this compound and give its reported log10 of IC50. COc1ccc2nccc([C@@H](O)CN3C4CCC3CC(NCc3ccc5c(n3)NC(=O)CS5)C4)c2n1.Cl (stereo partly drawn)
(A) 1.59

(Q) Item under review: COc1ccc(Cn2ccc3c4c(N)nc(N)nc4ccc32)cc1 . Reported log10 of IC50?
(A) -1.96

(Q) Entry under review: Cc1[nH]c(C)c(-c2ccc(OCc3cc(F)cc(F)c3)nc2)c(=O)c1Cl . Reported log10 of IC50?
(A) 0.89

(Q) Consider the compound CC[C@@]1(O)C(=O)OCc2c1cc1n(c2=O)Cc2c-1nc1cc3c(cc1c2CN1CCOCC1)OCO3.O=C(O)C(F)(F)F and give its measured log10 of IC50.
(A) -0.33

(Q) Which log10 of IC50 reading was recorded for the compound CCN(C)C(=O)n1ncc2c3c(N)nc(N)nc3ccc21 ?
(A) -0.66

(Q) Returns the measured log10 of IC50 for the input compound. Input: COc1ccc(NC2=C(c3ccccc3)C(=O)c3ccccc32)cn1
(A) 2.00

(Q) Fill in the blank: the reported log10 of IC50 of Nc1nc(N)c2c(ccc3c2ncn3Cc2ccccc2)n1 is ____.
(A) 0.06

(Q) // returns reported log10 of IC50 for input ON=C1CCc2cc(-c3cc(-c4ccc(OC5CCNCC5)cc4)oc3-c3ccncc3)ccc21
(A) 0.72

(Q) Value lookup for log10 of IC50; key = COc1ccc2nc3cc(Cl)ccc3c(N)c2c1.Cl
(A) 0.79

(Q) Recorded log10 of IC50 of COc1cc(OC)c(NC(=O)C2c3ccccc3C(=O)N(CC(C)C)C2c2cccs2)cc1Cl (stereo not drawn) , please.
(A) 2.00

(Q) log10 of IC50 for CC(C)(CNC(=O)[C@H]1CCCCN1)c1nc(-c2ccc(Cl)c(O)c2)c(-c2ccncc2)[nH]1.Cl ?
(A) 1.79

(Q) Which log10 of IC50 reading was recorded for the compound CCCCc1ccc(-c2ccc3[nH]c(C)c(Br)c(=O)c3c2)cc1 ?
(A) 1.00

(Q) Quick check: log10 of IC50 of Cl.Nc1nc(N)c2c(ccc3c2cnn3S(=O)(=O)N2CCCC2)n1 ?
(A) -2.39

(Q) Entry CNC(=O)c1cc(F)c(F)cc1Nc1nc(Nc2cccc(CS(C)(=O)=O)c2)ncc1Cl.O=CO : reported log10 of IC50 = ?
(A) 2.00

(Q) Given the entry Cc1[nH]c(C)c(-c2ccc(Oc3cccc(OC(F)(F)F)c3)cc2)c(=O)c1Cl , report its measured log10 of IC50.
(A) 2.00

(Q) Requested field: log10 of IC50. Item: O=C(Nc1ccc(OC2CCN(Cc3ccc(F)cc3)C2)c(Cl)c1)c1ccc(F)cc1.O=C(O)C(F)(F)F (stereo not drawn)
(A) 1.39

(Q) So what's the measured log10 of IC50 for this one? COc1c(F)ccc2ncc(Cl)c(CCN3CCC(NCc4ccc5c(n4)NC(=O)CS5)CC3)c12.Cl
(A) 1.38

(Q) Recorded log10 of IC50 for Cc1[nH]c(C)c(-c2ccc(-c3ccc4c(c3)OCO4)nc2)c(=O)c1Br , please?
(A) 2.00

(Q) Entry under review: Cc1noc(C)c1-c1ccc2c(Nc3ccc(Cl)cc3)c(C(N)=O)cnc2c1.Cl . Reported log10 of IC50?
(A) 0.68

(Q) Please report the recorded log10 of IC50 for Cc1[nH]c(C)c(-c2ccc(CCc3ccc(C(F)(F)F)cc3)nc2)c(=O)c1Cl .
(A) 1.76

(Q) // returns reported log10 of IC50 for input Cc1[nH]c2ccc(-c3ccc(N(C)C)cc3)cc2c(=O)c1Cl
(A) 2.00

(Q) // returns reported log10 of IC50 for input Cc1[nH]c(C)c([N+](=O)[O-])c(=O)c1-c1ccc(Oc2ccc(OC(F)(F)F)cc2)cc1
(A) 2.00

(Q) What value of measured log10 of IC50 is listed for Cl.O=C1CSc2ccc(CNC3CCN(CCc4c(Cl)cnc5ccc(Cl)cc45)CC3)nc2N1 ?
(A) 1.25

(Q) Report log10 of IC50 for CC[C@@]1(O)C(=O)OCc2c1cc1n(c2=O)Cc2c-1nc1cc3c(cc1c2CN1CCN(C)CC1)OCCO3.Cl please.
(A) 0.10

(Q) Looking for the measured log10 of IC50 of COc1ccc2nccc([C@@H](O)CN3CCC(NCc4cc5cccc6c5n(c4=O)CCC6)CC3)c2c1.O=C(O)C(=O)O , can you help?
(A) 1.21

(Q) Name the recorded log10 of IC50 for CN(C)S(=O)(=O)n1ncc2c3c(N)nc(N)nc3ccc21.Cl .
(A) -3.00

(Q) # input compound: COc1ccc2ncc(Cl)c(CCN3CCC(NCc4ccc5c(n4)NC(=O)CS5)CC3)c2c1.Cl ; wanted: its log10 of IC50
(A) 1.19

---

# System: HepG2 cells
# assay-explanation: HepG2 cytotoxicity assay
# experimental-setup: HepG2; this manuscript
// NB: equality with 10 µM counts as NO; only HepG2 cytoxicity (Pb ODA, this manuscript) strictly below is YES

(Q) Could you please tell me whether HepG2 cytoxicity (Pb ODA, this manuscript) recorded for CN1c2ccc([N+](=O)[O-])cc2C(C)(C)C12C=Cc1cc(Br)cc([N+](=O)[O-])c1O2 (stereo not shown) [TCMDC-124178] is less than 10 µM?
(A) NO

(Q) Does CCn1c(C(C)C)cc2c3c(N)nc(N)nc3ccc21 [TCMDC-137856] have HepG2 cytoxicity (Pb ODA, this manuscript) strictly under 10 µM?
(A) YES

(Q) For this compound, is HepG2 cytoxicity (Pb ODA, this manuscript) lower than 10 µM? CCC(CC)n1c(COC)cc2c3c(N)nc(N)nc3ccc21 [TCMDC-137313]
(A) YES

(Q) I wonder whether Cc1[nH]c(C)c(-c2ccc(OCc3cc(F)cc(F)c3)nc2)c(=O)c1Cl [TCMDC-135676] has HepG2 cytoxicity (Pb ODA, this manuscript) below 10 µM. Can you tell?
(A) YES

(Q) Check if HepG2 cytoxicity (Pb ODA, this manuscript) falls below 10 µM for Cc1[nH]c(C)c(-c2ccc(-c3cccc(OC(F)(F)F)c3)nc2)c(=O)c1Cl [TCMDC-136286] .
(A) YES

(Q) Field: below-cutoff. Rule: recorded HepG2 cytoxicity (Pb ODA, this manuscript) strictly less than 10 µM. Subject: COc1ccc2nccc([C@@H](O)CN3CCC(NC(=O)c4cc5c(F)cc(F)cc5[nH]4)CC3)c2c1.CS(=O)(=O)O [TCMDC-140781]
(A) NO

(Q) Could you please tell me whether HepG2 cytoxicity (Pb ODA, this manuscript) recorded for CC(C)N1CCN(CCCCNc2c3ccccc3nc3ccccc23)CC1.Cl [TCMDC-137573] is less than 10 µM?
(A) YES

(Q) Here's an entry: COc1cc(Cn2ccc3c4c(N)nc(N)nc4ccc32)cc(OC)c1OC [TCMDC-137341] . Is its HepG2 cytoxicity (Pb ODA, this manuscript) below 10 µM?
(A) YES

(Q) Strictly below 10 µM in HepG2 cytoxicity (Pb ODA, this manuscript)? Cc1[nH]c(C)c(-c2ccc(Oc3ccc(F)cc3)cc2)c(=O)c1Br [TCMDC-137402]
(A) YES

(Q) Dear reviewer, please state whether Nc1nc(N)c2c(ccc3c2ccn3Cc2ccccn2)n1 [TCMDC-137980] has HepG2 cytoxicity (Pb ODA, this manuscript) strictly beneath 10 µM.
(A) YES

(Q) Decide: HepG2 cytoxicity (Pb ODA, this manuscript) of COc1ccc2nc3cc(Cl)ccc3c(N)c2c1.Cl [TCMDC-125835] strictly below 10 µM?
(A) YES

(Q) Please let me know if Cl.O=C1CSc2ccc(CNC3CCN(CCc4c(Cl)cnc5ccc(Cl)cc45)CC3)nc2N1 [TCMDC-141959] shows HepG2 cytoxicity (Pb ODA, this manuscript) below 10 µM.
(A) NO

(Q) State whether 10 µM exceeds HepG2 cytoxicity (Pb ODA, this manuscript) recorded for Cc1[nH]c(C)c(-c2ccc(OCc3cc(C(F)(F)F)cc(C(F)(F)F)c3)nc2)c(=O)c1Cl [TCMDC-135814] .
(A) YES

(Q) Below 10 µM on HepG2 cytoxicity (Pb ODA, this manuscript)? Entry COc1ccc2ncc(Cl)c(NCC3(O)CCC(NCc4ccc5c(n4)NC(=O)CS5)CC3)c2n1.Cl (stereo not shown) [TCMDC-134671]
(A) NO

(Q) Consider Cc1cc(F)ccc1-c1nc(NCC(O)CNCCc2ccccc2)nc2c1ccc(=O)n2-c1c(F)cccc1F.O=C(O)C(F)(F)F (stereo not shown) [TCMDC-141784] . Does its HepG2 cytoxicity (Pb ODA, this manuscript) lie strictly below 10 µM?
(A) NO

(Q) Identify whether the compound Cc1nc(C)c(-c2ccc(Oc3cc(Cl)cc(Cl)c3)cc2)c(O)c1Br [TCMDC-137392] records HepG2 cytoxicity (Pb ODA, this manuscript) below 10 µM.
(A) NO

(Q) Is HepG2 cytoxicity (Pb ODA, this manuscript) strictly under 10 µM for the entry COc1ccc2ncc(C#N)c(CCN3CCC(NCc4ccc5c(n4)NC(=O)CS5)CC3)c2n1.Cl [TCMDC-135188] ?
(A) NO

(Q) API: query returns whether the compound falls strictly under 10 µM in HepG2 cytoxicity (Pb ODA, this manuscript). Query: Cl.NCC1(c2nc(-c3ccc(Cl)c(O)c3)c(-c3ccncc3)[nH]2)CCCCC1 [TCMDC-141154]
(A) NO

(Q) A record lists Cc1cc2c3c(N)nc(N)nc3ccc2n1C(C)C [TCMDC-137864] . Is its HepG2 cytoxicity (Pb ODA, this manuscript) below 10 µM?
(A) YES

(Q) Lab note: HepG2 cytoxicity (Pb ODA, this manuscript) threshold 10 µM. Does this compound come in strictly under it? CC(C)(CN)c1nc(-c2ccc(Cl)c(O)c2)c(-c2ccncc2)[nH]1.Cl [TCMDC-140369]
(A) YES

(Q) Is the reported HepG2 cytoxicity (Pb ODA, this manuscript) for Nc1nc(N)c2c(ccc3c2ccn3Cc2cccc3ccccc23)n1 [TCMDC-137996] strictly below 10 µM?
(A) YES

(Q) Confirm or reject: HepG2 cytoxicity (Pb ODA, this manuscript) of Cl.c1ccc2c(NCCCCCCCCCNc3c4ccccc4nc4ccccc34)c3ccccc3nc2c1 [TCMDC-124286] lies strictly below 10 µM
(A) YES

(Q) Take the compound COc1ccc2nccc([C@@H](O)CN3CCC(NCc4cc5c(F)ccc(F)c5[nH]4)CC3)c2c1.O=C(O)C(=O)O [TCMDC-140739] and say whether its HepG2 cytoxicity (Pb ODA, this manuscript) is less than 10 µM.
(A) NO

(Q) Consider the compound CCCC(C)n1ccc2c3c(N)nc(N)nc3ccc21 (stereo not shown) [TCMDC-137964] . Is its HepG2 cytoxicity (Pb ODA, this manuscript) strictly less than 10 µM?
(A) YES

(Q) I wonder whether CCC(C)(C)n1c(C)cc2c3c(N)nc(N)nc3ccc21 [TCMDC-137307] has HepG2 cytoxicity (Pb ODA, this manuscript) below 10 µM. Can you tell?
(A) YES

(Q) Given CCCN1CCN(CCCCNc2c3ccccc3nc3ccccc23)CC1.Cl [TCMDC-137576] , is recorded HepG2 cytoxicity (Pb ODA, this manuscript) strictly lower than 10 µM?
(A) YES

(Q) Is 10 µM strictly greater than the compound's reported HepG2 cytoxicity (Pb ODA, this manuscript)? compound: CCN(CC)CCCNc1c2ccccc2nc2ccccc12.Cl [TCMDC-125517]
(A) NO

(Q) Bench note: check whether Cc1[nH]c(C)c(-c2ccc(Oc3ccccc3)cc2)c(=O)c1Br [TCMDC-137410] shows HepG2 cytoxicity (Pb ODA, this manuscript) below 10 µM
(A) NO

(Q) Regarding Br.CC(CCON1C(N)=NC(N)=NC1(C)C)c1ccc(Cl)c(Cl)c1 (stereo not shown) [TCMDC-123922] , kindly confirm whether its HepG2 cytoxicity (Pb ODA, this manuscript) is beneath 10 µM.
(A) YES

(Q) Strictly below 10 µM in HepG2 cytoxicity (Pb ODA, this manuscript)? COc1ccc2nccc(N3CCC(CCNCc4ccc5c(n4)NC(=O)CS5)CC3)c2n1.Cl [TCMDC-141944]
(A) NO

(Q) Quick check: does C=CCn1ccc2c3c(N)nc(N)nc3ccc21 [TCMDC-137995] have HepG2 cytoxicity (Pb ODA, this manuscript) under 10 µM?
(A) YES

(Q) Does Cc1[nH]c(C)c(-c2ccc(OCc3ccc(OC(F)(F)F)cc3)nc2)c(=O)c1Br [TCMDC-135254] have HepG2 cytoxicity (Pb ODA, this manuscript) strictly under 10 µM?
(A) NO

(Q) Strictly below 10 µM: is that where HepG2 cytoxicity (Pb ODA, this manuscript) of Cc1[nH]c(C)c(-c2ccc(OCc3cc(F)cc(F)c3)nc2)c(=O)c1Br [TCMDC-135683] sits?
(A) NO

(Q) Below 10 µM on HepG2 cytoxicity (Pb ODA, this manuscript)? Entry CC(C)N1CCN(CCCNc2c3ccccc3nc3ccccc23)CC1.Cl [TCMDC-137547]
(A) NO
